# STUDY SYSTEM: human α5β3γ2 receptor (α5-GABAA receptor) (Homo sapiens (Human), UniProt P18507+P31644)
# ASSAY: Radioligand (3H-flunitrazepam) competition binding assay, BZD site
# EXPERIMENTAL SETUP: 3H-flunitrazepam 1 nM; HEK293 membranes expressing human α5β3γ2
pKi: −log10 of the molar value.
Please enter met where pKi is greater than or equal to 8, and not met where it is lower.

SMILES INPUT: Cc1onc(-c2ccc(F)cc2)c1COc1cnc(N2CCn3ccnc3C2)cn1
QUALITATIVE LABEL: not met
--
SMILES INPUT: Cc1onc(-c2ccc(F)cc2)c1COc1cnc(-c2cnn3c2CCC3)cn1
QUALITATIVE LABEL: met
--
SMILES INPUT: Cc1onc(-c2ccc(F)cc2)c1COc1cnc(-c2cnn3c2COCC3)cn1
QUALITATIVE LABEL: met
--
SMILES INPUT: Cc1onc(-c2ccc(F)cc2)c1COc1ccc(-c2nnc3n2CCOC3)nn1
QUALITATIVE LABEL: met
--
SMILES INPUT: Cc1onc(-c2ccc(F)cc2)c1COc1cnc(-c2nnc3n2CCC3)cn1
QUALITATIVE LABEL: met

* * *

# ASSAY: Thermodynamic solubility in simulated intestinal fluid (FaSSIF)
# Assay type: physicochemical
# EXPERIMENTAL SETUP: simulated intestinal fluid FaSSIF, pH 7.4, thermodynamic from solid, 37° C., 1000 rpm

SMILES INPUT: Cc1onc(-c2ccc(F)cc2)c1COc1cnc(-c2nnc3n2CCCOC3)cn1
solubility thermodynamic at 4 h / mg/mL: 0.0183

* * *

# STUDY SYSTEM: α5-GABAA receptor (Homo sapiens (Human), UniProt P18507+P31644)
# ASSAY: Whole-cell patch clamp electrophysiology, inverse regulation activity in α5β3γ2-HEK293 cells
# Format: cell-based
# EXPERIMENTAL SETUP: compound 100 nM; GABA 0.05-0.06 μM (about EC7-8); clamped at −60 mV; read-out: Inverse regulation efficiency to α5-GABAA receptor

MOLECULE: Cc1onc(-c2ccc(F)cc2)c1COc1ccc(N2CCn3ccnc3C2=O)nn1 [Compound 37]
inhibition at 0.1 µM [%]: 54
--
MOLECULE: Cc1onc(-c2ccc(F)cc2)c1COc1cnc(-c2nnc3n2CCCC3)cn1 [Compound 32]
inhibition at 0.1 µM [%]: 35
--
MOLECULE: Cc1onc(-c2ccc(F)cc2)c1COc1cnc(N2CCn3c(C)nnc3C2)cn1 [Compound 27]
inhibition at 0.1 µM [%]: 39
--
MOLECULE: Cc1onc(-c2ccc(F)cc2)c1COc1ccc(N2CCn3c(C)nnc3C2)nn1 [Compound 34]
inhibition at 0.1 µM [%]: 39
--
MOLECULE: Cc1onc(-c2ccc(F)cc2)c1COc1ccc(N2CCN3CCOC[C@@H]3C2)nn1 [Compound 49]
inhibition at 0.1 µM [%]: 37
--
MOLECULE: Cc1onc(-c2ccc(F)cc2)c1COc1ccc(-c2nnc3n2CCC3)nn1 [Compound 22]
inhibition at 0.1 µM [%]: 50
--
MOLECULE: Cc1onc(-c2ccc(F)cc2)c1COc1ccc(-n2nnc3c2CCOC3)cn1 [Compound 50]
inhibition at 0.1 µM [%]: 49
--
MOLECULE: Cc1onc(-c2ccc(F)cc2)c1COc1ccc(-c2nnn3c2COCC3)cn1 [Compound 1]
inhibition at 0.1 µM [%]: 38
--
MOLECULE: Cc1onc(-c2ccc(F)cc2)c1COc1cnc(-c2nnc3n2CCC3)cn1 [Compound 23]
inhibition at 0.1 µM [%]: 45
